Molecular target: Large T antigen (Simian virus 40) (UniProt P03070)
Sequence (P03070 whole entry, looked up): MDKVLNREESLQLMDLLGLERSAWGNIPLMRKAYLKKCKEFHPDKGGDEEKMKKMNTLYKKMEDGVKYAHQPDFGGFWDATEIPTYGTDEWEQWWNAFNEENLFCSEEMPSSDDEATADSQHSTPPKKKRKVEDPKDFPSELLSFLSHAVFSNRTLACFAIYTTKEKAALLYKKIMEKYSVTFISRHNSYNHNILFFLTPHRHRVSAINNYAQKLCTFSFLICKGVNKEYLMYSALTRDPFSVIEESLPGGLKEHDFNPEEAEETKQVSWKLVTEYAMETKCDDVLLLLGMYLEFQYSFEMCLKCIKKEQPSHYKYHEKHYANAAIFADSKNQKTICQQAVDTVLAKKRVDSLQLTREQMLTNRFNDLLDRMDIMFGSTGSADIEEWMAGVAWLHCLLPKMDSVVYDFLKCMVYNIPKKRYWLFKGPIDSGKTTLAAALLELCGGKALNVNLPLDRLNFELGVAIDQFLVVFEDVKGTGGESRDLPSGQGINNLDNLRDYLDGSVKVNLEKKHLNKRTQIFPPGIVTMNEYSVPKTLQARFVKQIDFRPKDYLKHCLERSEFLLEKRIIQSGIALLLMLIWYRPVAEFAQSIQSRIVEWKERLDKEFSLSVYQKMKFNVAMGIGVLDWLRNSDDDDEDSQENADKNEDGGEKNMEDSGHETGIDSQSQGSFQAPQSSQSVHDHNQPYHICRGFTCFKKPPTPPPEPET
Test: SV40 large T antigen inhibitors, biochemical (AID 1903)
Settings: SV40 large T antigen ATPase/helicase inhibition assay; at 20 µM; stronger effect = higher value
In all, about 310,000 compounds went through this assay and about 1,200 (0.39%) were called active. Only a sample is shown. Entries with a potency or affinity are not part of this list.
endpoint label: inhibition (%)

# compound, unit of measure, value reported
records = [
    ("CCOC(=O)N1CCC(=NNc2nc3ccccc3s2)CC1", "%", 8.66),
    ("O=C(NCc1cccs1)C1CC(O)CN1C(=O)Nc1ccccc1 (stereo unspecified)", "%", 3.53),
    ("COC(=O)CC1SC(=O)NC1=Nc1ccc(C)cc1 (stereo unspecified)", "%", 0.63),
    ("O=C(O)CN1C(=O)S/C(=C\\c2cccnc2)C1=O", "%", 16.2),
    ("CC(NC(=O)Nc1ccc(F)cc1F)c1ccc2c(c1)OCO2 (stereo unspecified)", "%", 16.7),
    ("CCNc1ccc(C(=O)OCC)cc1NC(=O)c1cccc(S(=O)(=O)N(C)c2ccccc2)c1", "%", -1.52),
    ("NC1=NC(=O)C2(COC(c3ccncc3)OC2)S1 (stereo unspecified)", "%", 3.62),
    ("CCOC(=O)c1cnc2cc(F)c(F)cc2c1N1CCOCC1", "%", 0.2),
    ("CN(C)C(=O)C1CCC(=O)N1Cc1cccs1 (stereo unspecified)", "%", 3.97),
    ("O=C(Nc1cccc(Br)c1)c1ccc(CN2CCc3ccccc3C2)cc1", "%", 6.55),
    ("COc1ccc2c(C)c(CC(=O)N3CCN(C(=O)C4COc5ccccc5O4)CC3)c(=O)oc2c1C (stereo unspecified)", "%", 12),
]
